test system: NB4 (acute promyelocytic leukemia) cells; test: MTT cell growth inhibition, leukemia cells; type: cell-based; conditions: Homo sapiens; NB4, 72 h, MTT; read-out: IC90
measured.endpoint: IC90
Provide a numeric answer, followed by its unit.

molecule=COc1ccc2cc1Oc1ccc(cc1)C[C@H]1c3cc(c(OC)cc3CCN1C)Oc1c(OC(=O)c3ccc(N(C)C)cc3)c(OC)cc3c1[C@H](C2)N(C)CC3 study_system="NB4 (acute promyelocytic leukemia) cells" value_measured="0.98 µg/mL"
molecule="COc1ccc2cc1Oc1ccc(cc1)C[C@H]1c3cc(c(OC)cc3CCN1C)Oc1c(OCC(O)CNCC3CC3)c(OC)cc3c1[C@H](C2)N(C)CC3 (stereo partly drawn)" study_system="NB4 (acute promyelocytic leukemia) cells" value_measured="0.95 µg/mL"
molecule="COc1ccc2cc1Oc1ccc(cc1)C[C@H]1c3cc(c(OC)cc3CCN1C)Oc1c(OCC(O)CN3CCCC(C)C3)c(OC)cc3c1[C@H](C2)N(C)CC3 (stereo partly drawn)" study_system="NB4 (acute promyelocytic leukemia) cells" value_measured="0.91 µg/mL"
molecule="COc1ccc2cc1Oc1ccc(cc1)C[C@H]1c3cc(c(OC)cc3CCN1C)Oc1c(OCC(O)CN3CCCCC3)c(OC)cc3c1[C@H](C2)N(C)CC3 (stereo partly drawn)" study_system="NB4 (acute promyelocytic leukemia) cells" value_measured="0.78 µg/mL"
molecule=C=C(C)COc1c(OC)cc2c3c1Oc1cc4c(cc1OC)CCN(C)[C@H]4Cc1ccc(cc1)Oc1cc(ccc1OC)C[C@@H]3N(C)CC2 study_system="NB4 (acute promyelocytic leukemia) cells" value_measured="1.88 µg/mL"
molecule=COc1ccc2cc1Oc1ccc(cc1)C[C@H]1c3cc(c(OC)cc3CCN1C)Oc1c(OCC3CC3)c(OC)cc3c1[C@H](C2)N(C)CC3 study_system="NB4 (acute promyelocytic leukemia) cells" value_measured="2.48 µg/mL"

The recorded IC90 for entry C=CCN(C)CC(O)COc1c(OC)cc2c3c1Oc1cc4c(cc1OC)CCN(C)[C@H]4Cc1ccc(cc1)Oc1cc(ccc1OC)C[C@@H]3N(C)CC2 (stereo partly drawn) equals 1.76 µg/mL

IC90 measured on COc1ccc2cc1Oc1ccc(cc1)C[C@H]1c3cc(c(OC)cc3CCN1C)Oc1c(OCC(O)CN3CCN(C#N)CC3)c(OC)cc3c1[C@H](C2)N(C)CC3 (stereo partly drawn) = 1.61 µg/mL

// field: IC90; key: C=CCOc1c(OC)cc2c3c1Oc1cc4c(cc1OC)CCN(C)[C@H]4Cc1ccc(cc1)Oc1cc(ccc1OC)C[C@@H]3N(C)CC2 ; value = 2.32 µg/mL

----------
tested on: Hela (human cervical cancer) cells; assay: MTT cell growth inhibition, solid tumor cells; type: cell-based; conditions: Homo sapiens; Hela, 72 h, MTT; read-out: IC90
Field: label. Allowed values: class 1 (IC90 < 3 µg/mL) or class 0 (IC90 >= 3 µg/mL).

test_smiles=COc1ccc2cc1Oc1ccc(cc1)C[C@H]1c3cc(c(OC)cc3CCN1C)Oc1c(OC(=O)C3CC3)c(OC)cc3c1[C@H](C2)N(C)CC3 study_system="Hela (human cervical cancer) cells" label="class 0"
test_smiles=COc1ccc2cc1Oc1ccc(cc1)C[C@H]1c3cc(c(OC)cc3CCN1C)Oc1c(OS(=O)(=O)c3ccccc3)c(OC)cc3c1[C@H](C2)N(C)CC3 study_system="Hela (human cervical cancer) cells" label="class 0"
test_smiles=COc1ccc2cc1Oc1ccc(cc1)C[C@H]1c3cc(c(OC)cc3CCN1C)Oc1c(OC(=O)c3c(F)cccc3Cl)c(OC)cc3c1[C@H](C2)N(C)CC3 study_system="Hela (human cervical cancer) cells" label="class 0"
test_smiles=COc1ccc2cc1Oc1ccc(cc1)C[C@H]1c3cc(c(OC)cc3CCN1C)Oc1c(OS(=O)(=O)c3ccc(C)cc3)c(OC)cc3c1[C@H](C2)N(C)CC3 study_system="Hela (human cervical cancer) cells" label="class 0"

State whether 3 µg/mL exceeds IC90 recorded for C=C(C)COc1c(OC)cc2c3c1Oc1cc4c(cc1OC)CCN(C)[C@H]4Cc1ccc(cc1)Oc1cc(ccc1OC)C[C@@H]3N(C)CC2 .
class 1
